// data source = the supplement of paper PMC10567573

B1: LRRC45 (parent)
chain: DLSAANEKNLLLQNQVDELERKFR

Variants of: B1
ASSAY_NOTES: protein stability index of a GFP-peptide fusion (GPS, HEK-293T) (PSI 1-6); higher = more stable;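 note: lentivirally expressed fusions sorted by FACS into six bins by GFP to DsRed ratio, PSI derived from sequencing read proportions per bin multiplied by bin number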
MEASUREMENT_CONTEXT: c terminus: a fixed tail appended
MEASURED_ENDPOINT: protein stability index
Lab note: record just the number, no unit beside it.

Exam item: Recorded protein stability index of N6F , please.
Marked response: 3.62
